Target: HLA-B27
Experiment: REVEAL MHC-peptide binding
So basically: % of positive control at 0.9% or higher? That is t. Lower than 0.9%? That is f.

Exercise: In plain terms: is recorded % of positive control at least 0.9% for GP[Cit]IGVRAT (peptide) ?
Key: f

Exercise: In plain terms: is recorded % of positive control at least 0.9% for L[Nle]GYIPLIG (peptide) ?
Key: f

Exercise: In plain terms: is recorded % of positive control at least 0.9% for EL[Nle]GYIPLI (peptide) ?
Key: f

Exercise: In plain terms: is recorded % of positive control at least 0.9% for P[Cit]IGVRAT[Cit] (peptide) ?
Key: t

Exercise: In plain terms: is recorded % of positive control at least 0.9% for [Nle]GYIPLIGA (peptide) ?
Key: t

Exercise: In plain terms: is recorded % of positive control at least 0.9% for [Cit]IGVRAT[Cit]R (peptide) ?
Key: f

* * *

Target: HLA-A3
Experiment: REVEAL MHC-peptide binding
valueKind: % of positive control

Exercise: # get_value(readout='% of positive control', item= [Nle]GYIPLIGA (peptide) )
Key: 3.13%

Exercise: # get_value(readout='% of positive control', item= [Cit]IGVRAT[Cit]R (peptide) )
Key: 25.2%

Exercise: # get_value(readout='% of positive control', item= GP[Cit]IGVRAT (peptide) )
Key: 3.48%

Exercise: # get_value(readout='% of positive control', item= P[Cit]IGVRAT[Cit] (peptide) )
Key: 2.52%

Exercise: # get_value(readout='% of positive control', item= L[Nle]GYIPLIG (peptide) )
Key: 3.98%

Exercise: # get_value(readout='% of positive control', item= EL[Nle]GYIPLI (peptide) )
Key: 4.54%

* * *

Target: HLA-A29
Test: REVEAL MHC-peptide binding
Field: % of positive control. Provide a value for each of the substances that follow.
Give just the number in %; leave the unit off.

Exercise: # get_value(readout='% of positive control', item= GP[Cit]IGVRAT (peptide) )
Key: 11.9

Exercise: # get_value(readout='% of positive control', item= [Cit]IGVRAT[Cit]R (peptide) )
Key: 16.7

Exercise: # get_value(readout='% of positive control', item= L[Nle]GYIPLIG (peptide) )
Key: 25.9

Exercise: # get_value(readout='% of positive control', item= EL[Nle]GYIPLI (peptide) )
Key: 20.9

Exercise: # get_value(readout='% of positive control', item= P[Cit]IGVRAT[Cit] (peptide) )
Key: 14.1

Exercise: # get_value(readout='% of positive control', item= [Nle]GYIPLIGA (peptide) )
Key: 27.9

* * *

Field: % of positive control. Provide a value for each of the substances that follow.
Target: HLA-A1
Experiment: REVEAL MHC-peptide binding
Give just the number in %; leave the unit off.

Exercise: # get_value(readout='% of positive control', item= [Nle]GYIPLIGA (peptide) )
Key: 17.9

Exercise: # get_value(readout='% of positive control', item= P[Cit]IGVRAT[Cit] (peptide) )
Key: 18.8

Exercise: # get_value(readout='% of positive control', item= [Cit]IGVRAT[Cit]R (peptide) )
Key: 19.7

Exercise: # get_value(readout='% of positive control', item= GP[Cit]IGVRAT (peptide) )
Key: 18.6

Exercise: # get_value(readout='% of positive control', item= L[Nle]GYIPLIG (peptide) )
Key: 14.3

Exercise: # get_value(readout='% of positive control', item= EL[Nle]GYIPLI (peptide) )
Key: 18.3
